These measurements were taken from patent US20200317768A1.

Documented ratio of KD at pH 5.8/pH 7.4 across a set of binders
# EXPERIMENTAL TARGET: T1, Mouse latent myostatin (mouse, UniProt O08689 26-267; O08689 268-376)
# T1 construct: Latent form = complex of two propeptides and the mature dimer
# T1 sequence 1: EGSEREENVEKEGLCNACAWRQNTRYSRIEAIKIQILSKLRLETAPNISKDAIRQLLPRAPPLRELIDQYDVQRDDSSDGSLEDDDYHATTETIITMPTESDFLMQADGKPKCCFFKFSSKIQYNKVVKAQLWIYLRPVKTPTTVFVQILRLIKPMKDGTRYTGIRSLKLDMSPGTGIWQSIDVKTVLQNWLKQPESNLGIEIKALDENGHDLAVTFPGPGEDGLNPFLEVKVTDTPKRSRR
# T1 sequence 2: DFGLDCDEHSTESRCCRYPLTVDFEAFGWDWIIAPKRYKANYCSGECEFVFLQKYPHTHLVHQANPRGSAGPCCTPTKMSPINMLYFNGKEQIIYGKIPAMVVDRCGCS
# EXPERIMENT DESCRIPTION: SPR 37C; KD pH 5.8 / KD pH 7.4
Give only the figure.

Here's what some known entries look like.
MS_M103205H1004-SG1/M103202L889-SK1 (antibody, human IgG1, kappa, V domains shown, also called MS1032LO07-SG1) VH: QVTLKESGPVLVKPTETLTLTCTVSGIDLSHDDISWVRQAPGKGLEWVGIISYAGSMYYASWAKGRLTISKDTSKNQVVLTMTNMDPVDTATYYCARGVPAYSHGGDKWGQGTLVTVSS VL: DIVMTQSPATLSLSPGERATLSCTSSQSVYHANWLSWFQQKPGQPPKLLIYWASTLAYGVPSRFSGSGSGTDFTLTISSLQPEDAATYYCAGGYGGGRYAFGQGTKVEIKR = 97
MS_M103245H1233-SG1/M103202L1045-SK1 (antibody, human IgG1, kappa, V domains shown, also called MS1032LO23-SG1) VH: QVTLKESGPVLVKPTETLTLTCKVSGIDLSHEDISWVRQAPGKGLEWVSIISYAGSTYYASWAKGRLTISKDTSKNQVVLTMTNMDPVDTATYYCARGVPAYSHGGDLWGQGTLVTVSS VL: DIVMTQSPATLSLSPGERATLSCTTSQSVYHENWLSWFQQKPGQPPKLLIYWASTLAYGVPSRFSGSGSGTDFTLTISSLQPEDAATYYCAGGYGGGRYAFGQGTKVEIKR = 24

Exercise: Query ratio of KD at pH 5.8/pH 7.4 for MS_M103205H1057-SG1/M103202L889-SK1 (antibody, human IgG1, kappa, V domains shown, also called MS1032LO12-SG1) VH: QVTLKESGPVLVKPTETLTLTCTVSGIDLSHTDISWVRQAPGKGLEWVGIISYAGSKYKASWAKGRLTISKDTSKNQVVLTMTNMDPVDTATYYCARGVPAYSHGGDLWGQGTLVTVSS VL: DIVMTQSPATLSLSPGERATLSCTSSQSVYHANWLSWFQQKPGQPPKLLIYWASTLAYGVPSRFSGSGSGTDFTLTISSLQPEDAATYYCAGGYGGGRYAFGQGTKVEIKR
Solution: 60

Exercise: Query ratio of KD at pH 5.8/pH 7.4 for MS_M103205H1047-SG1/M103202L889-SK1 (antibody, human IgG1, kappa, V domains shown, also called MS1032LO11-SG1) VH: QVTLKESGPVLVKPTETLTLTCTVSGIDLSHTDISWVRQAPGKGLEWVGIISYAGKKYYASWAKGRLTISKDTSKNQVVLTMTNMDPVDTATYYCARGVPAYSHGGDLWGQGTLVTVSS VL: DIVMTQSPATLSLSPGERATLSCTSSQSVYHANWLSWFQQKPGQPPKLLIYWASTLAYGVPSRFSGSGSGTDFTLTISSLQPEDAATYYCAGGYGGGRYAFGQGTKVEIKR
Solution: 81

Exercise: Query ratio of KD at pH 5.8/pH 7.4 for MS_M103205H1795-SG1/M103202L1060-SK1 (antibody, human IgG1, kappa, V domains shown, also called MS1032LO24-SG1) VH: QVTLKESGPVLVKPTETLTLTCTVSGIDLSHDDISWVRQAPGKGLEWVGIISYAGSTYYASWAKGRLTISKDTSKNQVVLTMTNMDPVDTATYYCARGVPAYSHGGDLWGQGTLVTVSS VL: DIVMTQSPATLSLSPGERATLSCTSSQSVFHENWLSWFQQKPGQPPKLLIYWASTLAWGVPSRFSGSGSGTDFTLTISSLQPEDAATYYCAGGYGGGRYAFGQGTKVEIKR
Solution: 6
